TARGET_OR_SYSTEM: Human recombinant MAO-B (hMAO-B) (Homo sapiens)
Construct: purchased Sigma-Aldrich; host or cells: insect cells
Sequence (P27338 1-520): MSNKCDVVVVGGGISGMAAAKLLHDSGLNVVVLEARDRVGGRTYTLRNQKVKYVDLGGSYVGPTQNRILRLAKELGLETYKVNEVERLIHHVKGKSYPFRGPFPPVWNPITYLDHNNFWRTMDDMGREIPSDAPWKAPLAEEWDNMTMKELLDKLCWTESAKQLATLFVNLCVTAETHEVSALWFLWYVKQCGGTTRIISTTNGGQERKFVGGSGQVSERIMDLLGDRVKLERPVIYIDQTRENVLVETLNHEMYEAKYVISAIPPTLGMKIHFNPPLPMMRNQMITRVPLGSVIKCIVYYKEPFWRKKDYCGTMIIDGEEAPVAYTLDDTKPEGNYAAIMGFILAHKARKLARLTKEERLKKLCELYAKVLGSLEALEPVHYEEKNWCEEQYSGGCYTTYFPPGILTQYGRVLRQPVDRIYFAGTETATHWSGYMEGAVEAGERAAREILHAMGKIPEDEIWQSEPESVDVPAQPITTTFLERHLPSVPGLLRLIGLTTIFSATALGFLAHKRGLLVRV
METHOD_NOTES: MAO-B inhibition assay (Amplex Red fluorescence, benzylamine substrate)
Format: biochemical
CONDITIONS: single dose 10 µM
PROPERTY_LABEL: inhibition at 10 µM (%)

{"columns": ["MOLECULAR_STRING", "VALUE_COMPARATOR", "OBS_VALUE"],
 "data": [
  ["O=C(Nc1ccc(F)c(Cl)c1)c1ccc2[nH]ccc2c1", "=", 34.2],
  ["COc1cc(NC(=S)Nc2ccc3c(ccn3C(=O)c3cccc(F)c3)c2)cc(OC)c1", "=", 32.5],
  ["O=C(Nc1ccc2c(c1)OCO2)c1ccc2[nH]ccc2c1", "=", 89.6],
  ["O=C(NCCCl)Nc1ccc2c(ccn2C(=O)c2cccc(F)c2)c1", "=", 26.6],
  ["O=C(Nc1cc(Cl)cc(Cl)c1)Nc1ccc2c(ccn2C(=O)c2cccc(F)c2)c1", "=", 38.6],
  ["O=C(c1cccc(F)c1)n1ccc2cc(NC(=S)NCCN3CCCCC3)ccc21", "=", 44.7],
  ["O=C(Nc1ccc2c(ccn2C(=O)c2cccc(F)c2)c1)NC1CCCCC1", "=", 44],
  ["CCOC(=O)NC(=S)Nc1ccc2c(ccn2C(=O)c2cccc(F)c2)c1", "=", 15.5],
  ["O=C(NCCc1ccc(F)cc1)Nc1ccc2c(ccn2C(=O)c2cccc(F)c2)c1", "=", 42],
  ["O=C(NCc1ccc2c(c1)OCO2)c1ccc2[nH]ccc2c1", "=", 15.3],
  ["O=C(Nc1ccc(N2CCOCC2)cc1)Nc1ccc2c(ccn2C(=O)c2cccc(F)c2)c1", "=", 32.9],
  ["O=C(c1cccc(F)c1)n1ccc2cc(NC(=S)NCCN3CCOCC3)ccc21", "=", 46.8],
  ["O=C(Nc1ccc(Oc2ccccc2)cc1)Nc1ccc2c(ccn2C(=O)c2cccc(F)c2)c1", "=", 38.1],
  ["O=C(c1cccc(F)c1)n1ccc2cc(NC(=S)NCCCl)ccc21", "=", 45.6],
  ["O=C(c1cccc(F)c1)n1ccc2cc(NC(=S)Nc3ccc(N4CCOCC4)cc3)ccc21", "=", 43.9],
  ["O=C(Nc1ccc2c(ccn2C(=O)c2cccc(F)c2)c1)c1ccc(Cl)c(Cl)c1", "=", 53],
  ["O=C(Nc1ccc2c(ccn2C(=O)c2cccc(F)c2)c1)c1ccnc([N+](=O)[O-])c1", "=", 26.8],
  ["O=C(Nc1ccc(Br)cc1)c1ccc2[nH]ccc2c1", ">", 99],
  ["O=C(Nc1ccc(Cl)c(C(F)(F)F)c1)Nc1ccc2c(ccn2C(=O)c2cccc(F)c2)c1", "=", 42.1]
]}
